Ref: ChEMBL document CHEMBL1949667

pIC50 overview
assayComment: Cytotoxicity against human BJeLR cells expressing HRAS G12V mutant after 48 hrs by alamar blue assay
Type: functional, cell-based
pIC50: −log10 of the molar value.
measurementLabel: pIC50

>>> experimentalresult("COc1ccc(N(C(=O)CCl)C(C(=O)NCCc2ccccc2)C(C)C)cc1Cl (racemic)")
6.05
>>> experimentalresult("Cc1onc(C(=O)N2CCN(C(c3ccc(Cl)cc3)c3ccc(Cl)cc3)CC2)c1[N+](=O)[O-]")
7.15
>>> experimentalresult("COc1ccc(N(C(=O)CCl)C(C(=O)NCCc2ccccc2)c2cccs2)cc1Cl (racemic)")
7.60
>>> experimentalresult("COc1ccc(N(C(=O)CCl)C(C(=O)NCCc2ccccc2)c2cccs2)cc1 (racemic)")
6.66
>>> experimentalresult("COc1ccc(N(CC(=O)NCCc2ccccc2)C(=O)CCl)cc1Cl")
6.64
>>> experimentalresult("COc1ccc(N(C(=O)CCl)C(C(=O)NCc2ccccc2)c2cccs2)cc1Cl (racemic)")
7.12
>>> experimentalresult("COc1ccc(N(C(=O)CCl)C(C)(C)C(=O)NCCc2ccccc2)cc1Cl")
7.24
>>> experimentalresult("O=C(NCCc1ccccc1)C(c1cccs1)N(C(=O)CCl)c1cccc(Cl)c1 (racemic)")
6.81
>>> experimentalresult("Cc1onc(C(=O)N2CCN(C(c3ccccc3)c3ccc(Cl)cc3)CC2)c1[N+](=O)[O-] (racemic)")
6.89
>>> experimentalresult("O=C(c1cc([N+](=O)[O-])ccn1)N1CCN(C(c2ccccc2)c2ccccc2)CC1")
4.43
>>> experimentalresult("COc1ccc(N(C(=O)CCl)C(C(=O)NCCc2ccccc2)c2nc(C)cs2)cc1Cl (racemic)")
5.08
>>> experimentalresult("COc1ccc(C(c2ccc(OC)cc2)N2CCN(C(=O)c3noc(C)c3[N+](=O)[O-])CC2)cc1")
5.80
>>> experimentalresult("COc1cccc(N(C(=O)CCl)C(C(=O)NCCc2ccccc2)c2cccs2)c1 (racemic)")
6.77
>>> experimentalresult("Cc1onc(C(=O)N2CCCN(C(c3ccccc3)c3ccccc3)CC2)c1[N+](=O)[O-]")
6.11
>>> experimentalresult("COc1ccc(N(C(=O)CCl)C(C(=O)NC2CCCCC2)c2cccs2)cc1Cl (racemic)")
6.95
>>> experimentalresult("COC(=O)c1ccc(C2c3[nH]c4ccccc4c3C[C@@H](C(=O)OC)N2C(=O)CCl)cc1 (stereo partly drawn)")
7.00
>>> experimentalresult("COc1ccc(N(C(=O)CCl)C(C(=O)NCS(=O)(=O)c2ccc(C)cc2)c2cccs2)cc1Cl (racemic)")
7.05
>>> experimentalresult("Cc1onc(C(=O)N2CCN(C(c3ccc(F)cc3)c3ccc(F)cc3)CC2)c1[N+](=O)[O-]")
6.74

###

assayComment: Cytotoxicity against human BJeLR cells expressing HRAS G12V mutant after 48 hrs by alamar blue assay
Assay type: functional, cell-based
measurementLabel: log10 IC50 (log10 of the value in nM)

>>> experimentalresult("COc1ccc(N(C(=O)CCl)C(C(=O)NCn2nnc3ccccc32)c2cccs2)cc1Cl (racemic)")
2.01
>>> experimentalresult("Cc1onc(C(=O)NCCNC(c2ccccc2)c2ccccc2)c1[N+](=O)[O-]")
4.33
>>> experimentalresult("COc1ccc(N(C(=O)CCl)C(C(=O)NCCc2ccccc2)c2ccc(Cl)s2)cc1Cl (racemic)")
1.79
>>> experimentalresult("COc1ccc(N(C(=O)CCl)C(C(=O)NCCc2ccccc2)C2CCCCC2)cc1Cl (racemic)")
2.70
>>> experimentalresult("Cc1onc(C(=O)N2CCN(C(c3ccccc3)c3ccccc3)CC2)c1[N+](=O)[O-]")
3.01
